Biological target: GCK (human)
Test: radiometric filter-binding kinase assay
Details: compound 10.0 µM
measured.property: residual activity (%)

Recorded results for 3 compounds are shown here.
{"compound": "NC1(c2ccc(-c3nc4ccn5c(=O)[nH]nc5c4cc3-c3ccccc3)cc2)CCC1", "test.target": "GCK (human)", "unit.label": "%", "residual activity": 85}
{"compound": "NCC(=O)Nc1ccc(-n2nc(C(F)(F)F)cc2-c2ccc3c(ccc4ccccc43)c2)cc1", "test.target": "GCK (human)", "unit.label": "%", "residual activity": 92}
{"compound": "CC1=C(CO)C(=O)O[C@@H]([C@@H](C)[C@H]2CC[C@H]3[C@@H]4C[C@H]5O[C@]56[C@@H](O)C=CC(=O)[C@]6(C)C4CC[C@]23C)C1 (stereo not given in full)", "test.target": "GCK (human)", "unit.label": "%", "residual activity": 68}

[1] CN1C(=O)[C@@H](Cc2c[nH]c3ccccc23)NC1=S
[2] COc1cc(C(=O)N2CCOCC2)c(F)cc1Nc1ncc(C(F)(F)F)c(NC2CC2)n1
Choose between 1 and 2 : whose measured residual activity value is numerically larger? Mark your answer with the label of the selected entry.
1
(1: 89%, 2: 25%)

###

Target: TTBK1 (human)
Experiment: radiometric filter-binding kinase assay
Conditions: compound 10.0 µM
measured.property: residual activity (%)

{"compound": "CNc1nc(-c2ccc3c(N)n[nH]c3c2)cc(N2C[C@@H](C(=O)NC3CCCCC3)CC[C@H]2C)n1", "unit.label": "%", "residual activity": 99}
{"compound": "CCNc1nc(Nc2cc(F)c(C(=O)N3CCOCC3)cc2OC)ncc1C(F)(F)F", "unit.label": "%", "residual activity": 84}
{"compound": "CC1=C(CO)C(=O)O[C@@H]([C@@H](C)[C@H]2CC[C@H]3[C@@H]4C[C@H]5O[C@]56[C@@H](O)C=CC(=O)[C@]6(C)C4CC[C@]23C)C1 (stereo partly drawn)", "unit.label": "%", "residual activity": 95}
{"compound": "CC(C)(C#N)c1ccc(N2C(=O)OCc3cnc4ccc(-c5cnc6ccccc6c5)cc4c32)cc1", "unit.label": "%", "residual activity": 100}
{"compound": "Cc1ccc(-c2ccc3c(ccc4sc5c(c43)NC[C@@H](C)NC5=O)n2)cn1", "unit.label": "%", "residual activity": 96}
{"compound": "Cc1ccc(=O)n(-c2ccccc2)c1", "unit.label": "%", "residual activity": 107}
{"compound": "C=CC(=O)N1CCC[C@@H](n2nc(-c3ccc(Oc4ccccc4)cc3)c3c(N)ncnc32)C1", "unit.label": "%", "residual activity": 81}
{"compound": "Nc1cccc2c1CN(C1CCC(=O)NC1=O)C2=O (stereo not drawn)", "unit.label": "%", "residual activity": 118}
{"compound": "COC(=O)/C=C/C(=O)OC", "unit.label": "%", "residual activity": 88}
{"compound": "COc1cc(C(=O)N2CCOCC2)c(F)cc1Nc1ncc(C(F)(F)F)c(NC2CC2)n1", "unit.label": "%", "residual activity": 93}
{"compound": "CCn1c(-c2nonc2N)nc2cncc(CNC3CCNCC3)c21", "unit.label": "%", "residual activity": 91}
{"compound": "NC(=O)c1cc(-c2ccnc(NC3CCCCC3)c2)nc(N2CCNCC2)c1", "unit.label": "%", "residual activity": 93}
{"compound": "O=C(N[C@@H](COc1ccc2[nH]c(=O)[nH]c2c1)c1ccccc1)c1cccn(Cc2ccc(F)c(F)c2)c1=O", "unit.label": "%", "residual activity": 106}
